These data points were gathered from paper PMC11213733.

# Lookup of reported Transcriptomic high concentration (µM) = IC30 of ATP depletion keyed by entry
# System: cardiac microtissues
# assayInfo: ATP depletion (CellTiter Glo Luminescent Cell Viability Assay) in cardiac microtissues
# Assay type: cell-based, human
# experimentalParameters: the concentration is the IC30 of ATP depletion, or cell death caused
Structures can show the parent of a compound that is named as a salt.
measurementName: Transcriptomic high concentration (µM) = IC30 of ATP depletion

compound	tgt	valueUnit	numericValue
CNC(=O)c1cc(Oc2ccc(NC(=O)Nc3ccc(Cl)c(C(F)(F)F)c3)cc2)ccn1 [Sorafenib Tosylate]	cardiac microtissues	µM	3.74
COc1cccc2c1C(=O)c1c(O)c3c(c(O)c1C2=O)C[C@@](O)(C(=O)CO)C[C@@H]3O[C@H]1C[C@H](N)[C@H](O)[C@H](C)O1 [Doxorubicin HCl]	cardiac microtissues	µM	0.36
CS(=O)(=O)CCNCc1ccc(-c2ccc3ncnc(Nc4ccc(OCc5cccc(F)c5)c(Cl)c4)c3c2)o1	cardiac microtissues	µM	5.53
CCN(CC)CCNC(=O)c1c(C)[nH]c(/C=C2\C(=O)Nc3ccc(F)cc32)c1C [Sunitinib Malate]	cardiac microtissues	µM	3.53

* * *

Recorded number of significant differentially expressed genes, 6hr low for the following compounds
# Tested on: cardiac microtissues
# assayInfo: Transcriptomic profiling (mRNA-seq) and DESeq2 differential gene expression analysis in cardiac microtissues
# experimentalParameters: absolute log2(Fold-Change) > 1, FDR p ≤ 0.05; 6 hr, low concentration
Where a name gives a salt, the structure may show the parent alone.
measurementName: number of significant differentially expressed genes, 6hr low

compound	numericValue
Nc1nc2c(ncn2COCCO)c(=O)[nH]1	4
O=c1[nH]cc(F)c(=O)[nH]1	0
COc1cccc2c1C(=O)c1c(O)c3c(c(O)c1C2=O)C[C@@](O)(C(=O)CO)C[C@@H]3O[C@H]1C[C@H](N)[C@H](O)[C@H](C)O1 [Doxorubicin HCl]	26
Cc1nc(Nc2ncc(C(=O)Nc3c(C)cccc3Cl)s2)cc(N2CCN(CCO)CC2)n1	48
CCN(CC)CCNC(=O)c1c(C)[nH]c(/C=C2\C(=O)Nc3ccc(F)cc32)c1C [Sunitinib Malate]	0
C#Cc1cccc(Nc2ncnc3cc(OCCOC)c(OCCOC)cc23)c1	39
CS(=O)(=O)CCNCc1ccc(-c2ccc3ncnc(Nc4ccc(OCc5cccc(F)c5)c(Cl)c4)c3c2)o1	17
CNC(=O)c1cc(Oc2ccc(NC(=O)Nc3ccc(Cl)c(C(F)(F)F)c3)cc2)ccn1 [Sorafenib Tosylate]	7
CN1CCN(C2=Nc3cc(Cl)ccc3Nc3ccccc32)CC1	2
O=C1CC2(CCCC2)CC(=O)N1CCCCN1CCN(c2ncccn2)CC1 [Buspirone HCl]	10
CC(=O)[C@]1(O)Cc2c(O)c3c(c(O)c2[C@@H](O[C@H]2C[C@H](N)[C@H](O)[C@H](C)O2)C1)C(=O)c1ccccc1C3=O [Idarubicin HCl]	12
COC(=O)Nc1nc2ccc(C(=O)c3ccccc3)cc2[nH]1	27
